System: NCI-H23
Experiment: Growth inhibition of human NCI-H23 cells assessed as cell growth at 10^-6 M incubated for 48 hrs by sulforhodamine B assay
Type: functional
Conditions: NCI-H23, 48 h, read-out: Activity
Please provide measured growth at 1 µM for the entries that follow.
Answer by giving the amount and then stating its unit.

// worked examples, growth at 1 µM included
| inputSmiles | experimentalTarget | growth at 1 µM |
| --- | --- | --- |
| Fc1ccc(-c2nc(Nc3ccc(-c4nc5ccccc5[nH]4)cc3)nc(N3CCOCC3)n2)cc1 | NCI-H23 | 85% |
| c1ccc(-c2nc(Nc3ccc(-c4nc5ccccc5[nH]4)cc3)nc(N3CCOCC3)n2)cc1 | NCI-H23 | 93% |
| c1ccc2[nH]c(-c3ccc(Nc4nc(N5CCCCC5)nc(N5CCOCC5)n4)cc3)nc2c1 | NCI-H23 | 91% |

Shifting focus to the compound that follows.
Prompt: Which growth at 1 µM reading was recorded for the compound Clc1ccc(-c2nc(Nc3ccc(-c4nc5ccccc5[nH]4)cc3)nc(N3CCOCC3)n2)cc1 ?
Completion: 85%
